# method_summary: qHTS of pediatric cancer cell lines to identify multiple opportunities for drug repurposing: Primary screen for NB-EBc1 cells (AID 1347095)
# test_context: NB-EBc1 neuroblastoma viability, CellTiter-Glo luminescence, 48 h; series mostly up to 46 µM
Records with an inconclusive call do not appear. Active and inactive are the calls of the source. The call rests on the fitted dose curve; in most records, active means well fitted cell-killing curve with a large enough effect; inconclusive means small, poorly fitted or top-dose-only effect; inactive means no such curve, though single readings can be large or run the other way.
Please reply with one of these outcomes: TRUE (active), FALSE (inactive)

As a guide, the following entries are already answered.
compound	discrete_label
CC1COC2(CCN(c3nc(=O)c4cc(C(F)(F)F)cc([N+](=O)[O-])c4s3)CC2)O1 (stereo not drawn)	FALSE
C=C1C(=CC=C2CCC[C@]3(C)[C@@H]([C@H](C)C=C[C@H](C)C(C)C)CC[C@@H]23)C[C@@H](O)C[C@@H]1O	TRUE
COC(=O)Nc1ccc(-c2nc(N3CCOCC3)c3cnn(C4CCN(Cc5cccnc5)CC4)c3n2)cc1	TRUE
C[C@@H](Oc1cc(-c2cnn(C3CCNCC3)c2)cnc1N)c1c(Cl)ccc(F)c1Cl	TRUE
CC(C)(O)CCc1ccc(OCc2cc(-c3cccc(OC(F)F)c3)c3ncccc3c2)cc1	FALSE
CCOc1cc2ncc(C#N)c(Nc3ccc(F)c(Cl)c3)c2cc1NC(=O)C=CCN(C)C	TRUE

Tell me the recorded outcome of this test for Cc1cn(-c2cc(NC(=O)c3ccc(C)c(Nc4nccc(-c5cccnc5)n4)c3)cc(C(F)(F)F)c2)cn1 .
TRUE

What do you have for CCOC(=O)C1=C(C)NC2=C(C(=O)CC(C)(C)C2)C1c1ccc(-c2ccccc2)cc1 (stereo not drawn) ?
TRUE
